Cited source for all entries: paper PMC6477676

Biological target: T1, mStau2 dsRBD1-2 H36A (Mus musculus, UniProt Q8CJ67 8-181, H36A)
T1 sequence: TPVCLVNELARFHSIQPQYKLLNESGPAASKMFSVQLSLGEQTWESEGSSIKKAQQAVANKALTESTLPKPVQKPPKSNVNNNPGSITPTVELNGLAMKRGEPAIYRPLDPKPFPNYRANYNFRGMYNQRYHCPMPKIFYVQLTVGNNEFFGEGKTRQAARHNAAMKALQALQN
Assay: SPR; Hill n 1; SPR: HBS-EP (10 mM HEPES pH 7.4, 150 mM NaCl, 3 mM EDTA, 0.005% P20); EMSA: 5 nM RNA, protein buffer (40 mM Bis-Tris pH 7, 150 mM NaCl, 2 mM DTT presumed), 4% glycerol, 30 ug/mL yeast tRNA, RT; NMR: 150 mM NaCl, 20 mM Na phosphate pH 7.0, 5 mM DTT, 298 K
Conditions: protein: recombinant; label: 5' 32P (EMSA); biotin (SPR); hairpin, 18 bp stem
metric: pKd
The value called pKd is obtained by taking minus log10 of the concentration in mol/L.

Lookup: Respond only with pKd recorded for GGUAUAUACAUGCACAUGCAAUUUGUGUAUGUGUAUGUAUAUA (structured_RNA) [SRS2+5]
Found: 6.15
